tested on: NCI-H522 lung; test: NCI-60 one-dose screen, 48 h; details: 10 µM unless noted
The panel holds about 83,000 compounds, 20% with a hit somewhere; the sample as a whole holds those more often. The source made the active and inactive calls. Rule for the calls: active = growth percent below 10; inactive = the rest.
Outcomes: active, inactive

compound	label
CCN(CC)CCOc1ccc(-c2c(-c3ccccc3)c(=O)oc3ccccc23)cc1	inactive
Nc1nc(=S)c2ncn(C3OC(COP(=O)(O)O)C(O)C3O)c2[nH]1 (configuration not stated)	active
CC1(c2ccccc2O)NN=C(/N=C/c2cccc([N+](=O)[O-])c2)N1C(Cc1c[nH]c2ccccc12)C(=O)O (configuration not stated)	inactive
C#CCOc1cccc(Nc2ncnc3ccc(NC(=O)CCl)cc23)c1	active
CC1(C)CC[C@]2(C(=O)O)CC[C@]3(C)C(=CC[C@@H]4[C@@]5(C)C/C(=C/O)C(=O)C(C)(C)[C@@H]5CC[C@]43C)[C@@H]2C1	inactive
COc1ccc(C(c2cc(OC)c(OC)c(OC)c2)N2CCN(c3ccccc3)CC2)cc1 (configuration not stated)	inactive
COc1cc(-c2csc(NC(=O)c3cc(-n4cnc(C)c4)cc(C(F)(F)F)c3)n2)cc(OC)c1OC	inactive
CN(C)CCCC1(c2ccc(F)cc2)OCc2cc(-c3cncc4ccccc34)ccc21 (configuration not stated)	inactive
CN([O-])c1nc(N(C)[O-])nc(N2CCOCC2)n1.CN([O-])c1nc(N(C)[OH2+])nc(N2CCOCC2)n1.[Fe+3]	inactive
CCC(C)N(c1ccc(Cl)cc1)c1nc(-c2ccc(Br)cc2)cs1 (configuration not stated)	inactive
COc1ccc2c(c1)c(-c1noc(C(=O)c3cn(C)c4ccc(Br)cc34)n1)cn2C	inactive
CCOC(=O)C1=NN(c2ccccc2)C(=O)/C1=C\N1C(=O)CC(=O)NC1=S	inactive
COc1cccc(NC(=O)Cn2cc(CN3CCN(c4ccnc5cc(Cl)ccc45)CC3)nn2)c1	inactive
C=CCn1c(SCC(=O)Nc2ccc(C(=O)/C=C/c3ccc(Cl)cc3)cc2)nnc1-c1cc(-c2ccc(S(N)(=O)=O)cc2)nc2ccccc12	inactive
O=C(c1ccc(-c2ccccc2)cc1)c1ccc([N+](=O)[O-])cc1	inactive
COc1ccc(C(=O)Nc2ncc(Cc3cccc(Cl)c3)s2)cc1OC	active
CC1=C(C(=O)OC(C)C)C(c2ccc3c(c2)OCO3)NC(=S)N1 (configuration not stated)	inactive
Nc1c(C(=O)Nc2ccccc2Cl)sc2nc3c(cc12)C(O)CCC3 (configuration not stated)	active
COc1ccc(-c2nnc(-c3ccc4c(c3)nc(-c3ccncc3)n4C3CCCCC3)o2)cc1	inactive
CCOC(=O)c1cc(C(=O)c2cc(OC)c(OC)c(OC)c2)n2ccc(-c3ccncc3)cc12	inactive
CCCCC(=O)Nc1ncc(Cc2ccc(Cl)cc2)s1	inactive
OB(O)c1cccc(-c2nc3ccc4[nH]ncc4c3c3c2CCCC3)c1	inactive
O=C(O)[C@@H]1c2ccccc2-c2ccccc2[C@H]1C(=O)O	inactive
N#Cc1nc(-c2ccccc2)oc1S(=O)(=O)N1CCOCC1	active
COc1ccc(-c2nnc3n(C)c(=O)c4ccccc4n23)cc1N	inactive
CCCCC(=O)c1ccco1	inactive
COc1cc(CNS(=O)(=O)c2ccc(C)cc2)ccc1OCc1cn(-c2ccc(F)cc2)nn1	inactive
O=C(CSc1nnc2n1S(=O)(=O)c1ccccc1N2c1ccccc1)Nc1nc2ccc(F)cc2s1	inactive
C#CCOc1cccc(Nc2ncnc3c(NC(=O)C=C)cccc23)c1	active
Cc1ccc(-c2nc3nc(-c4ccc(F)cc4)nc(N4CCNCC4)c3o2)cc1	inactive
C/C(=C(/c1ccc(Cl)cc1)c1ccc(OCCN2CCCC2)cc1)c1ccc(Cl)cc1	inactive
COC(C(=O)[C@@H](O)[C@@H](C)O)[C@@H]1Cc2cc3cc(O[C@H]4C[C@@H](O[C@H]5C[C@@H](O)[C@H](O)C(C)O5)[C@H](O)C(C)O4)c(C)c(O)c3c(O)c2C(=O)[C@H]1O[C@H]1C[C@@H](O[C@H]2C[C@@H](O[C@H]3C[C@@H](O)[C@H](OC)C(C)O3)[C@@H](O)C(C)O2)[C@H](O)C(C)O1 (some centres not stated)	active
COC(=O)c1c2c(c(C)[n+]([O-])c1C)C(=O)C(NCc1ccc(Cl)cc1)=CC2=O	inactive
N=C(N)c1ccc(-c2ccc(-c3cc(Cl)cc(Cl)c3)o2)o1	active
Nc1ncnc2c1N=C(c1ccc3c(c1)OCO3)CC(c1cccc(Nc3ccnc4cc(Cl)ccc34)c1)N2 (configuration not stated)	inactive
Cc1ccc(C2=Nc3c(N)ncnc3NC(c3ccc4c(c3)OCO4)C2)cc1 (configuration not stated)	inactive
CN1C(=O)/C(=C/c2cn(-c3ccccc3)nc2-c2ccccc2)SC1=S	inactive

Every entry's value here was drawn from PubChem BioAssay (NCI).
